Attribution: ChEMBL document CHEMBL3714755

# MEASURED_ON: P2X2/P2X3 heterotrimeric receptor (Homo sapiens) (UniProt Q9UBL9+P56373)
# ASSAY_SUMMARY: Antagonist activity against human P2X2/3 receptor expressed in CHOK1 cells assessed as inhibition of alpha,beta-meATP-induced calcium response incubated for 20 mins by Fluo-3AM dye based FLIPR assay
# Assay type: functional, cell-based
# PARTICULARS: CHO-K1
Active and inactive are the calls of the source. The rule behind the calls is not given here.
MEASUREMENT_TYPE: inhibition

Worked set:
COMPOUND: Cc1ccc(-c2cc(C(=O)NCc3cnccn3)cc(N(C)C(=O)C(C)C)c2)c(F)c1
inhibition: Active

COMPOUND: CCC(=O)N(C)c1cc(C(=O)N[C@H](C)CN2CCOCC2)cc(-c2ccc(C)cc2)c1
inhibition: Active

COMPOUND: CCC(C)(C)C(=O)N(C)c1cc(C(=O)NC(C)c2cnccn2)cc(-c2ccc(C)cc2)c1 (configuration not stated)
inhibition: Active

COMPOUND: COCC(C)NC(=O)c1cc(NC(=O)c2cccs2)cc(-c2ccc(C)cc2)c1 (configuration not stated)
inhibition: Active

COMPOUND: Cc1ccc(-c2cc(C(=O)NC(C)c3cnccn3)cc(N(C(=O)C(C)C)c3ccncn3)c2)cc1 (configuration not stated)
inhibition: Active

COMPOUND: COC[C@@H](C)NC(=O)c1cc(-c2ccc(F)cc2F)cc(N(C)C(=O)C(C)C)c1
inhibition: Active

COMPOUND: COCC(C)NC(=O)c1cc(NC(=O)c2c(-c3ccccc3)noc2C)cc(-c2ccc(C)cc2)c1 (configuration not stated)
inhibition: Active

COMPOUND: CCN(C(=O)c1cccnc1)c1cc(C(=O)NC(C)c2cnccn2)cc(-c2ccc(C)cc2)c1 (configuration not stated)
inhibition: Active

COMPOUND: COCC(C)NC(=O)c1cc(NC(=O)c2ccc(C(F)(F)F)cc2Cl)cc(-c2ccc(C)cc2)c1 (configuration not stated)
inhibition: Active

COMPOUND: CCN(C(=O)C(C)C)c1cc(C(=O)N[C@@H](C)CO)cc(-c2ccc(C)cc2)c1
inhibition: Active

Prompt line: For the compound shown here, CCN(C(=O)CC(C)C)c1cc(C(=O)NC(C)CO)cc(-c2ccc(C)cc2)c1 (configuration not stated) , give the reported inhibition.
Response line: Active

Prompt line: Return reported inhibition; argument: Cc1ccc(-c2cc(C(=O)NC(C)c3cnccn3)cc(N(C)C(=O)C3CCCC3)c2)cc1 (configuration not stated)
Response line: Active

Prompt line: Which inhibition reading was recorded for the compound CC(=O)N1CCC(C(=O)N(C)c2cc(C(=O)NC(C)c3cnccn3)cc(-c3ccc(C)cc3)c2)CC1 (configuration not stated) ?
Response line: Active

Prompt line: State the recorded inhibition for this entry: CCC(=O)N(c1cc(C(=O)NC(C)c2cnccn2)cc(-c2ccc(C)cc2)c1)c1ccncn1 (configuration not stated)
Response line: Active

Prompt line: Fill in the blank: the reported inhibition of `Cc1ccc(-c2cc(C(=O)NCc3cnccn3)cc(N(C)C(=O)C(C)C)c2)c(Cl)c1` is ____.
Response line: Active

Prompt line: Given CC(=O)N(c1cc(C(=O)NC(C)c2cnccn2)cc(-c2ccc(C)cc2)c1)c1ccncn1 (configuration not stated) , state its recorded inhibition.
Response line: Active
